src = PubChem BioAssay (EPA / NIEHS)

Experiment: ATG_RORE_CIS: Attagene CIS-FACTORIAL HepG2 Assay for human RAR-related Orphan Receptor Element (RORE) (AID 2282959)
Assay context: HepG2 Attagene cis-factorial RORE reporter, mRNA; actives raise or lower the signal
Active and inactive are the calls of the source. Rule for the calls: active = hit-call score of the fitted dose curve at least 0.9, where 1 is the maximum; inactive = score below 0.9.
// classify into active, inactive

Record excerpt, results attached:
Hi, sorry to bother you, what did the test record for `O=C(O)CCCC(=O)O` ?
inactive

Hi, sorry to bother you, what did the test record for `CC(C)=CCCC(C)=CC#N` ?
inactive

Hi, sorry to bother you, what did the test record for `CCCCCCCCCCCCC` ?
inactive

Hi, sorry to bother you, what did the test record for `CCOC(=O)c1ccccc1C` ?
inactive

Hi, sorry to bother you, what did the test record for CCOC(=O)C1=NN(c2ccc(Cl)cc2Cl)C(C)(C(=O)OCC)C1 (stereo not given) ?
inactive

Hi, sorry to bother you, what did the test record for `CC(C)=NNC(N)=S` ?
inactive

***
Hi, sorry to bother you, what did the test record for CC(=O)OC1CCCCC1C(C)(C)C (stereo not given) ?
inactive

Hi, sorry to bother you, what did the test record for `CCCCCCCOC(=O)c1ccc(O)cc1` ?
inactive

Hi, sorry to bother you, what did the test record for `CCCCCC(=O)OCC` ?
inactive

Hi, sorry to bother you, what did the test record for `CC(C)=CCl` ?
inactive

Hi, sorry to bother you, what did the test record for `COc1cc(O)c(C(=O)c2ccccc2)cc1S(=O)(=O)O` ?
inactive

Hi, sorry to bother you, what did the test record for `NC(=O)Nc1ccccc1` ?
inactive

Hi, sorry to bother you, what did the test record for `CCCCNS(=O)(=O)c1ccc(C)cc1` ?
inactive

Hi, sorry to bother you, what did the test record for `CC(=O)c1ccc(S(=O)(=O)NC(=O)NC2CCCCC2)cc1` ?
inactive
